TARGET_SYSTEM: UniProt O25776
Sequence (O25776 whole entry): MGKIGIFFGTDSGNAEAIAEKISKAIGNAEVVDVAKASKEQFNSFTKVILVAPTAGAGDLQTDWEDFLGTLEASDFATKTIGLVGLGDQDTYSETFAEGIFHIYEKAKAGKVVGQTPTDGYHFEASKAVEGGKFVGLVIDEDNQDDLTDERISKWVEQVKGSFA
READOUT: pKd
Reminder that pKd is minus the log10 of a molar concentration.

Find pKd (UniProt O25776) for the entry COc1ccc(CSc2ccc([N+](=O)[O-])c3nonc23)cc1 [formula (II)]
5.52
